- system.tested: T1, human IL-17A (human, UniProt Q16552 20-155, limits assumed)
- T1 construct: Bought from R&D Systems; also called IL-17 antigen (human IL17A)
- T1 sequence (looked up): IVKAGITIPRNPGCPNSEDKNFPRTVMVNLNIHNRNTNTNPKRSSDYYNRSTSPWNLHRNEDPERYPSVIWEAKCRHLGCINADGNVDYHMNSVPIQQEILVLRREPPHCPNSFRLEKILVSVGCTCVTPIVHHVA
- assay.details: blocking ELISA, IL-17RA coated; antibody 1 ug/ml pre-mixed with human IL-17A 0.1 ug/ml; bound IL-17A detected
readout: Blocking % (%)
Field: numeric (%). Do not append units.

These solved cases illustrate the format of a correct answer.
>  <binder>
PP10761 (antibody, human IgG4 S228P, kappa, V domains shown, Humanized, human IgG4/kappa; also called VH6665/VL6666) VH: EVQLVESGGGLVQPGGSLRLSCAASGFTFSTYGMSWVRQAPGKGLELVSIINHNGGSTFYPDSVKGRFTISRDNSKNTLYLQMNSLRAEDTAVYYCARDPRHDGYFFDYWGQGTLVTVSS VL: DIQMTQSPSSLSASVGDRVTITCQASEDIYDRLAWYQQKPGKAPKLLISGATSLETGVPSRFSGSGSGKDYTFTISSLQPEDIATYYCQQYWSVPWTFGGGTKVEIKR

>  <Blocking % / %>
99.7

$$$$
>  <binder>
PP10762 (antibody, human IgG4 S228P, kappa, V domains shown, Humanized, human IgG4/kappa; also called VH6665/VL6667) VH: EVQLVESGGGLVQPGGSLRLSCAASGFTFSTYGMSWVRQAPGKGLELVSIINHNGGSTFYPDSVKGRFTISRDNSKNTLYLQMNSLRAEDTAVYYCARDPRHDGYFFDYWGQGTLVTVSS VL: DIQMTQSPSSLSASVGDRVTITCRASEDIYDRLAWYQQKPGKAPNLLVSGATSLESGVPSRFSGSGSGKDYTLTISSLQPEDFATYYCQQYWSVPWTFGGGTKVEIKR

>  <Blocking % / %>
99.6

$$$$

Let's switch to this binder now.
Short answer for PP10759 (antibody, human IgG4 S228P, kappa, V domains shown, expressed in HEK293; also called chimeric antibody PP10759; chimeric parental antibody) VH: EVQLVESGGGLVQPGGSLKLSCVASGFTFSTYGMSWVRQTPDKRLELVAIINHNGGSTFYPDSVKGRFTVSRDNAKNTLHLQMSSLKSEDTAMYYCARDPRHDGYFFDYWGQGTTLTVSS VL: DIQMTQSSPSFSVSLGDRVTITCKASEDIYDRLAWYQQKPGNAPRLLISGATSLETGIPSRFSGSRSGKDYTLDINSLQTEDAATYYCQQYWSVPWTFGGGTKLEIKR : Blocking % was 99.5
